# assaySummary: self-splicing fitness, log relative to wild type (ln ratio); higher = more splicing; Tetrahymena group I intron in knt gene, E. coli kanamycin selection, DiMSum; sequences stand for … in CUCUCU…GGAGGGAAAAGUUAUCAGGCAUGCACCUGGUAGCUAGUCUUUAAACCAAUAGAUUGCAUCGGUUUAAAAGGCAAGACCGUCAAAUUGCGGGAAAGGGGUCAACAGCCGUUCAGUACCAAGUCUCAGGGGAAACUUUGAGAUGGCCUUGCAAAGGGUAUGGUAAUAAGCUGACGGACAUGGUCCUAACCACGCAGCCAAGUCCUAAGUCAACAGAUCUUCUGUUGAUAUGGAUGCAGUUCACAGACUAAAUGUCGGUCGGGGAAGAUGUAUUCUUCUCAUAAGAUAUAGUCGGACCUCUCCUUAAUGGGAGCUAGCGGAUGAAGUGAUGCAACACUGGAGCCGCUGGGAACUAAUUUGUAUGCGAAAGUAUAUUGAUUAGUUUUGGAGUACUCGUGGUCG;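 note: selection with 25 µg/mL kanamycin versus none on LB agar overnight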
# settings: 37 °C
measurementType: self-splicing fitness (ln)

1. UGAAAGCAAUAUUACGCGCC ... -0.728
2. CUGUAGCAAUAUUACGCGGG ... -2.07
3. UGUGAGCAAUAUUACGGUGU ... -2.84
4. UCAAAGCAAUAUUACGUAGA ... -0.85
5. CAUGAGCAAUAUUACGCGAC ... -2.84
6. GACCAGCAAUAUUACGACCA ... -0.054
7. UGUAAGCAAUAUUACGCCUC ... -2.25
8. UACCAGCAAUAUUACGCCGC ... -2.37
9. CCCGAGCAAUAUUACGUUUG ... -2.07
10. UGAAAGCAAUAUUACGGGAA ... -1.62
11. CCGAAGCAAUAUUACGAUAA ... -2.96
12. CUGGAGCAAUAUUACGUCCC ... -1.4
13. GAUCAGCAAUAUUACGGUUA ... 0.171
14. GGACAGCAAUAUUACGAGUG ... -1.79
15. AUGAAGCAAUAUUACGAUGU ... -0.284
16. CAAGAGCAAUAUUACGGACU ... -2.75
17. GCUGAGCAAUAUUACGACCC ... -0.524
18. UCCGAGCAAUAUUACGAGAC ... -2.81
19. CAAAAGCAAUAUUACGGUGC ... -2.8
20. CAUGAGCAAUAUUACGGGCG ... 0.178
21. GUAAAGCAAUAUUACGCGGC ... -0.672
22. CUGAAGCAAUAUUACGCAAC ... -2.22
23. CCGUAGCAAUAUUACGUGAG ... -2.51
24. ACACAGCAAUAUUACGCGCA ... 0.225
25. CGAAAGCAAUAUUACGUCGU ... -2.36
26. GUUGAGCAAUAUUACGGUCG ... -1.73
27. UGGCAGCAAUAUUACGCUUU ... -0.763
28. CACGAGCAAUAUUACGCCUU ... -2.76
29. CCCAAGCAAUAUUACGGGGA ... -1.62
30. GCGUAGCAAUAUUACGAAGC ... -1.67
31. GCCGAGCAAUAUUACGCUGU ... -1.57
32. CUUGAGCAAUAUUACGCUUG ... -1.83
33. GGAGAGCAAUAUUACGCGCU ... -1.67
34. UCGCAGCAAUAUUACGUCCG ... -0.0675
